The reported numbers originate from the supplement of paper PMC7125110.

Listing: self-cleavage kobs at 640 uM GlcN6P of selected variants
B1: glmS ribozyme (parent)
chain: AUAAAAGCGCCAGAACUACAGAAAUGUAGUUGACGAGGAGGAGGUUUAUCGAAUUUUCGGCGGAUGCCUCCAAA

- Variants of: B1
- METHOD_DESCRIPTION: self-cleavage kobs at 640 uM GlcN6P; higher = faster cleavage; RNA array
- COND: with glucosamine-6-phosphate
Variants at the floor of the assay were thinned out.
RESULT_TYPE: self-cleavage kobs at 640 uM GlcN6P (s⁻¹)

INSERT INTO assay_data (mutant_name, modifier, endpoint_value) VALUES
  ('G32A U65G', '=', '7.49e-05'),
  ('C16U U49C', '<', '1e-05'),
  ('G7C A36G A39G C67U', '<', '1e-05'),
  ('A42U C68A', '<', '1e-05'),
  ('C50U U55G', '=', '2.74e-05'),
  ('U47C U49G C50U', '<', '1e-05'),
  ('U54G G66C', '=', 0.000405),
  ('C8G G38C C50A G66U', '<', '1e-05'),
  ('C10U A36G', '<', '1e-05'),
  ('A6U A15U G40U G43C', '<', '1e-05'),
  ('A53U C71G', '=', 0.000283),
  ('C58U A64C C71A', '<', '1e-05'),
  ('G44C G59C', '<', '1e-05'),
  ('A52U C71A', '=', '5.96e-05'),
  ('C16A', '=', 0.000602),
  ('C10A G62U C70G', '=', '9.92e-05'),
  ('C8U A15U', '<', '1e-05'),
  ('A39U U49G', '=', 0.000168),
  ('G41C U45A', '=', '4.19e-05'),
  ('U46C G60A', '<', '1e-05'),
  ('A14C C16G', '=', '4.86e-05'),
  ('A36U A53G C58U C67G C70A', '=', 0.000184),
  ('A6G G13C', '<', '1e-05'),
  ('G41A A42G U45G', '=', 0.0066),
  ('U30G G37U U55C C58G', '<', '1e-05'),
  ('C34U U54A', '<', '1e-05'),
  ('C50G A53G C61U', '=', 0.000248),
  ('G9U C10G G13C A48C C50U', '<', '1e-05'),
  ('A12G U47A G60A', '<', '1e-05'),
  ('A12U U46C', '=', 0.00223),
  ('C10G U49C G66C', '<', '1e-05'),
  ('A14C U57A U69A', '=', '4.77e-05'),
  ('G9U C70U', '<', '1e-05'),
  ('G13U U56G', '=', 0.000172),
  ('U47A U49G', '=', '3.82e-05'),
  ('C10A A15G G32U C70G', '=', 0.000197),
  ('A42U U69A', '=', 0.0164),
  ('G29C A33U G35C A52U', '<', '1e-05'),
  ('U31G G38U U69A C71U', '=', 0.000772),
  ('C50G C70A', '=', 0.000163),
  ('A39G U47C', '=', 0.00353),
  ('G43A G63U', '<', '1e-05'),
  ('G29A U54C', '=', 0.000813),
  ('G35C A64U', '<', '1e-05'),
  ('A14C G59C C71A', '<', '1e-05'),
  ('A39C A42G', '=', 0.00152),
  ('U30A C70G C71U', '=', '5.91e-05'),
  ('G9U C68U C70U', '<', '1e-05'),
  ('G40A U55G', '=', 0.000944),
  ('A14U G41U', '=', 0.000109),
  ('G35C C50G', '=', '4.8e-05'),
  ('G41U U45C G59U', '<', '1e-05'),
  ('C11G U45C U46C C61U', '<', '1e-05'),
  ('G44A U65A', '=', '6.51e-05'),
  ('C8U G66C', '<', '1e-05'),
  ('A6C A52U U54A U55C', '<', '1e-05'),
  ('C11A G40U', '<', '1e-05'),
  ('G41A C71U', '=', 0.000132),
  ('U30A G37A U56A', '=', '5.62e-05'),
  ('A14U G60U', '<', '1e-05'),
  ('G13U G35C', '<', '1e-05'),
  ('C34U A48U A64U', '<', '1e-05'),
  ('G29C U54G', '=', 0.000289),
  ('G7A A48U U56G', '<', '1e-05'),
  ('A36G A64U C71U', '<', '1e-05'),
  ('A6G G7A C11G G32A U45G', '<', '1e-05'),
  ('C11U U31C G41C U49C G62A', '<', '1e-05'),
  ('G41U U56A C70A', '=', 0.0096),
  ('U45C U47A', '=', 0.000335),
  ('A42G U47A', '=', 0.00967),
  ('C16U G40C U47G', '=', 0.000145),
  ('G32U A42G', '=', 0.000218),
  ('C10A A53G C70G', '=', 0.000157),
  ('C16A G32A', '=', 0.000229),
  ('G40A C71U', '=', 0.0113),
  ('G13C G66C', '<', '1e-05'),
  ('G9C G63C', '<', '1e-05'),
  ('A15C G37C', '<', '1e-05'),
  ('G13U U30G', '=', '2.49e-05'),
  ('C8G C61G', '<', '1e-05'),
  ('G13C A33G G40U U49G G63A', '<', '1e-05'),
  ('A12U U47G A52U C61U', '<', '1e-05'),
  ('G43U C61G', '<', '1e-05'),
  ('A6C A33G U46C C61G', '<', '1e-05'),
  ('U31C G40A G59U', '<', '1e-05'),
  ('G43A U45A A53U G62C A64U', '<', '1e-05'),
  ('U30G G40A U56G', '=', '6.26e-05'),
  ('U45A A64G', '=', 0.0143),
  ('G41A U54A', '=', 0.000113),
  ('G38A G43U G51C', '<', '1e-05'),
  ('A36U U69G', '=', 0.000283);
